# assayed.target: Phosphodiesterase 1 (Homo sapiens, UniProt P54750+Q01064+Q14123)
# assay.explanation: Inhibition of cGMP PDE I enzyme in guinea pig at 1E-4M concentration
# Format: protein assay
# condition.summary: Cavia porcellus; target entry is the homologue from another species
Would you mind labelling by inhibition? At or over 10% is yes, under is no.

| molecule | answer.label |
| --- | --- |
| O=C1NN=C(c2ccc(-n3ccnc3)cc2)C2CCCCC12 (stereo not drawn) | yes |
| O=C1CCC(c2ccc(-n3ccnc3)cc2)=NN1Cc1ccccc1 | yes |
| O=C1CCC(c2ccc(NC3=NCCO3)cc2)=NN1 | yes |
| Oc1ccc(-c2ccc(-c3ncc[nH]3)cc2)nn1 | yes |
| O=C1CCC(c2ccc(-n3cnc4ccccc43)cc2)=NN1 | yes |
| CCc1nc(C)cn1-c1ccc(C2=NNC(=O)CC2)cc1 | yes |
| CCC1CC(=O)NN=C1c1ccc(-n2ccnc2)cc1 (stereo not drawn) | no |
| Cc1cc(O)nnc1-c1ccc(-n2ccnc2)cc1 | yes |
| Oc1ccc(-c2ccc(-n3cnc4c3CCCC4)cc2)nn1 | yes |
| CN1N=C(c2ccc(-n3ccnc3)cc2)CCC1=O | yes |
| Nc1cc(-c2ccc(-n3ccnc3)cc2)nnc1O | yes |
| Cc1nccn1-c1ccc(C2=NNC(=O)CC2)cc1 | yes |
| O=C1CCC(c2cccc(-n3ccnc3)c2)=NN1 | no |
| CC1CC(=O)NN=C1c1ccc(-n2cnc3c2CCCC3)cc1 (stereo not drawn) [TETRAHYDROBENXIMIDAZOLE] | yes |
| O=C1CCC(c2ccc(-n3cnc(CO)c3)cc2)=NN1 | no |
| Oc1ccc(-c2ccc(-n3ccnc3)cc2)nn1 | yes |
| O=C1CCC(c2ccc(-n3cnc4c3CCCC4)cc2)=NN1 | yes |
